IC50 listing for selected compounds.
- target: human KDR (Homo sapiens)
- Construct: GST-tagged recombinant kinase domain of the human KDR; GST
- Sequence (P35968 834-1162 limits assumed): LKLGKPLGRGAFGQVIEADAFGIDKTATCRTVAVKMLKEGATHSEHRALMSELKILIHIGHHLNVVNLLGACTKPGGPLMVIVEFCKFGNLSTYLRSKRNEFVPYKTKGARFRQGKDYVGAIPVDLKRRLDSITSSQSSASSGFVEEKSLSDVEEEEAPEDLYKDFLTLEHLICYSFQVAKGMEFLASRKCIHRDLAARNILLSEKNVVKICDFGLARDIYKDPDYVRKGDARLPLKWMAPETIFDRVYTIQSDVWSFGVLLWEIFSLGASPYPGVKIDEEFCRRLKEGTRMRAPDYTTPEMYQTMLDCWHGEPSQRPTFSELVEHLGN
- testSummary: KDR Kinase Assay, HTRF (assay 5)
- condition: 10 μM ATP
quantity: IC50

smilesText	result
O=C(NCC#Cc1cnc2nc1NCCCNS(=O)(=O)c1cccc(c1)N2)Nc1cccc(C(F)(F)F)c1	≤ 100 nM
O=S1(=O)NCCCNc2nc(ncc2C#CCNS(=O)(=O)c2cccc(Cl)c2Cl)Nc2cccc1c2	≤ 100 nM
O=C(NCCC#Cc1cnc2nc1NCCCNS(=O)(=O)c1cccc(c1)N2)Nc1ccccc1	≤ 100 nM
O=C(NCC#Cc1cnc2nc1NCCCNS(=O)(=O)c1cccc(c1)N2)NCc1ccccc1	100 to 1000 nM
Cc1ccc(F)c(S(=O)(=O)NCCC#Cc2cnc3nc2NCCCNS(=O)(=O)c2cccc(c2)N3)c1	≤ 100 nM
